Test system: MGC-803
Assay: Cytotoxicity against human MGC803 cells assessed as inhibition of cell viability after 48 hrs by MTT assay
Assay type: functional, cell-based
Conditions: MGC-803, 48 h
Sorting guide: entries reporting IC50 beneath 40 µM go in the True pile, the rest go in the False pile.

| SMILES_DATA | CLASSIFICATION |
| --- | --- |
| COc1ccc(-c2coc3cc(OCCCSC(=S)N4CCN(C(=O)OC(C)(C)C)CC4)ccc3c2=O)cc1 | True |
| COc1ccc(-c2coc3cc(OCCCSC(=S)N4CCOCC4)ccc3c2=O)cc1 | False |
| COc1ccc(-c2coc3cc(O)ccc3c2=O)cc1 | False |
| COc1ccc(-c2coc3cc(OCCCSC(=S)N4CCN(c5ccccn5)CC4)ccc3c2=O)cc1 | False |
| COc1ccc(-c2coc3cc(OCCCSC(=S)N4CCN(Cc5ccccc5)CC4)ccc3c2=O)cc1 | False |
| COc1ccc(-c2coc3cc(OCCSC(=S)N4CCN(C(=O)OC(C)(C)C)CC4)ccc3c2=O)cc1 | True |
| COc1ccc(-c2coc3cc(OCCCCSC(=S)N4CCN(C(=O)OC(C)(C)C)CC4)ccc3c2=O)cc1 | True |
| COc1ccc(-c2coc3cc(OCCCBr)ccc3c2=O)cc1 | False |

====

Tested on: MGC-803
Experiment: Cytotoxicity against human MGC803 cells assessed as inhibition of cell viability after 48 hrs by MTT assay
Format: functional, cell-based
Conditions: MGC-803, 48 h

| SMILES_DATA | COMPARISON_SIGN | IC50 [µM] |
| --- | --- | --- |
| COc1ccc(-c2coc3cc(OCCCCCBr)ccc3c2=O)cc1 | > | 100 |
| O=c1[nH]cc(F)c(=O)[nH]1 | = | 7.21 |
| CCN1CCN(C(=S)SCCCOc2ccc3c(=O)c(-c4ccc(OC)cc4)coc3c2)CC1 | = | 54 |
| COc1ccc(-c2coc3cc(OCCCCBr)ccc3c2=O)cc1 | = | 52.7 |
| COc1ccc(-c2coc3cc(OCCBr)ccc3c2=O)cc1 | > | 100 |
| COc1ccc(-c2coc3cc(OCCCSC(=S)N4CCN(C)CC4)ccc3c2=O)cc1 | = | 21.9 |
| COc1ccc(-c2coc3cc(OCCCSC(=S)N4CCN(C(C)=O)CC4)ccc3c2=O)cc1 | = | 39.4 |

====

Test system: PC-3
Experiment: Cytotoxicity against human PC3 cells assessed as inhibition of cell viability after 48 hrs by MTT assay
Type: functional, cell-based
Conditions: PC-3, 48 h

| SMILES_DATA | STUDY_SYSTEM | IC50 / µM |
| --- | --- | --- |
| COc1ccc(-c2coc3cc(OCCCSC(=S)N4CCN(c5ccccn5)CC4)ccc3c2=O)cc1 | PC-3 | 17.4 |
| COc1ccc(-c2coc3cc(OCCCSC(=S)N4CCCC4)ccc3c2=O)cc1 | PC-3 | 19.4 |
| COc1ccc(-c2coc3cc(OCCCBr)ccc3c2=O)cc1 | PC-3 | 62.6 |
| CCN1CCN(C(=S)SCCCOc2ccc3c(=O)c(-c4ccc(OC)cc4)coc3c2)CC1 | PC-3 | 7.08 |
| COc1ccc(-c2coc3cc(OCCCCBr)ccc3c2=O)cc1 | PC-3 | 55.6 |

====

Test system: PC-3
Assay: Cytotoxicity against human PC3 cells assessed as inhibition of cell viability after 48 hrs by MTT assay
Type: functional, cell-based
Conditions: PC-3, 48 h
MEASUREMENT_TYPE: IC50

| SMILES_DATA | STUDY_SYSTEM | ENDPOINT_RESULT |
| --- | --- | --- |
| COc1ccc(-c2coc3cc(OCCSC(=S)N4CCN(C(=O)OC(C)(C)C)CC4)ccc3c2=O)cc1 | PC-3 | 3.64 µM |
| O=c1[nH]cc(F)c(=O)[nH]1 | PC-3 | 29.3 µM |
| COc1ccc(-c2coc3cc(OCCCSC(=S)N4CCN(Cc5ccccc5)CC4)ccc3c2=O)cc1 | PC-3 | 14.9 µM |
| COc1ccc(-c2coc3cc(OCCCSC(=S)N4CCN(C(=O)OC(C)(C)C)CC4)ccc3c2=O)cc1 | PC-3 | 1.97 µM |
| COc1ccc(-c2coc3cc(OCCCCSC(=S)N4CCN(C(=O)OC(C)(C)C)CC4)ccc3c2=O)cc1 | PC-3 | 4.61 µM |
| COc1ccc(-c2coc3cc(OCCCSC(=S)N4CCN(C(C)=O)CC4)ccc3c2=O)cc1 | PC-3 | 4.31 µM |
| COc1ccc(-c2coc3cc(O)ccc3c2=O)cc1 | PC-3 | 57 µM |
| COc1ccc(-c2coc3cc(OCCCSC(=S)N4CCOCC4)ccc3c2=O)cc1 | PC-3 | 27.4 µM |
| COc1ccc(-c2coc3cc(OCCCCCBr)ccc3c2=O)cc1 | PC-3 | 44.8 µM |
| COc1ccc(-c2coc3cc(OCCCSC(=S)N4CCN(C)CC4)ccc3c2=O)cc1 | PC-3 | 2.21 µM |
| COc1ccc(-c2coc3cc(OCCBr)ccc3c2=O)cc1 | PC-3 | 41.9 µM |
